target: Peroxisome proliferator-activated receptor gamma (Homo sapiens); test: Transactivation of GAL4-fused human PPARgamma ligand binding domain expressed in African green monkey COS7 cells at 10 uM after 42 hrs by dual luciferase reporter gene assay relative to pioglitazone; type: cell-based; settings: COS-7
PARAMETER: Activity (%)

Observe how each entry below is paired with its result.
>  <COMPOUND>
Cc1c(NS(=O)(=O)c2ccc(S(=O)(=O)c3ccccc3)s2)c(=O)n(-c2ccccc2)n1C

>  <Activity (%)>
7.8

$$$$
>  <COMPOUND>
O=C(CSc1nnc(SCC(=O)NCCSCc2ccco2)s1)NCCSCc1ccco1

>  <Activity (%)>
12.3

$$$$
>  <COMPOUND>
CC(C)(CC(=O)O)CC(=O)N1CCCN(c2nccc(C(F)(F)F)n2)CC1

>  <Activity (%)>
9.8

$$$$
>  <COMPOUND>
Cc1cc(Oc2nc(NCCSC(C)(C)C)nc(Oc3cc(C)c(Cl)c(C)c3)n2)cc(C)c1Cl

>  <Activity (%)>
9

$$$$
>  <COMPOUND>
Cc1ccc(S(=O)(=O)Nc2ccc(Oc3cccnc3)nc2)cc1

>  <Activity (%)>
6

$$$$

a = Cn1ccnc1SCc1nccn1Cc1ccc(Cl)cc1
b = Cc1noc(C)c1-c1nc(CS(=O)(=O)Cc2ccc(Cl)cc2)no1
Which gives the smaller Activity number: a or b ? State your choice using its label.
a

a = COc1nc(-c2ccc(OCc3ccccc3)cc2OCc2ccc(F)cc2)cc(-c2ccc(C)cc2)c1C#N
b = Cc1nn(C)c(Cl)c1S(=O)(=O)Nc1ccc(Oc2ccc(F)cc2)cc1
Select the item with the higher value of Activity from the options a and b listed. State your choice using its label.
a
(a: 9.5%, b: 3%)

###

target: Peroxisome proliferator-activated receptor gamma (Homo sapiens, UniProt P37231); assay: Displacement of Fluoromone from GST-tagged recombinant human PPARgamma ligand binding domain by LanthaScreen TR-FRET assay
Sequence (P37231 whole entry, the tested form may be a part): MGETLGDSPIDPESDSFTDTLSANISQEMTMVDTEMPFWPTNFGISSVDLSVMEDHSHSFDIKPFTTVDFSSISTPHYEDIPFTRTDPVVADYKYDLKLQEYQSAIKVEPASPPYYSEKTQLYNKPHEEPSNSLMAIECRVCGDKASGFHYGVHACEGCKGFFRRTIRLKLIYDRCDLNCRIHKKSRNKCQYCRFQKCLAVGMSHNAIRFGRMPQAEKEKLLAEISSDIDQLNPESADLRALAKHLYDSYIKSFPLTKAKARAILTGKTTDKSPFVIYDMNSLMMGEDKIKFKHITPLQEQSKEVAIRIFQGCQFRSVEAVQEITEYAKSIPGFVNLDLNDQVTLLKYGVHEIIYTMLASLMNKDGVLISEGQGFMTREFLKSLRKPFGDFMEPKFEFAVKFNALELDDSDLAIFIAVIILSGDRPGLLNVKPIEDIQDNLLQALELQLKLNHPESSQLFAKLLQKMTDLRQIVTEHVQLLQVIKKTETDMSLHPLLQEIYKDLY
PARAMETER: EC50 (nM)

Observe how each entry below is paired with its result.
>  <MOLECULE>
O=S(=O)(c1ccc(Cl)cc1)c1cnn(S(=O)(=O)c2ccc(Cl)cc2Cl)c1-c1ccc(Cl)cc1

>  <PARAMETER>
EC50

>  <RECORDED_RESULT>
2100

$$$$
>  <MOLECULE>
COc1ccc(-c2cn3cccc(OCc4ccc(Cl)c(Cl)c4)c3n2)cc1

>  <PARAMETER>
EC50

>  <RECORDED_RESULT>
3100

$$$$
>  <MOLECULE>
CSc1nc(Sc2nnc(-c3cc(C(F)(F)F)cc(C(F)(F)F)c3)[nH]2)cc(Sc2nnc(-c3cc(C(F)(F)F)cc(C(F)(F)F)c3)[nH]2)n1

>  <PARAMETER>
EC50

>  <RECORDED_RESULT>
5400

$$$$
>  <MOLECULE>
CCCc1nc2c(C)cc(-c3nc4ccccc4n3C)cc2n1Cc1ccc(-c2ccccc2C(=O)O)cc1 [TELMISARTAN]

>  <PARAMETER>
EC50

>  <RECORDED_RESULT>
700

$$$$

P = O=S(=O)(Nc1cc(Cc2cc(NS(=O)(=O)c3ccccc3)cc(C(F)(F)F)c2)cc(C(F)(F)F)c1)c1ccccc1
Q = O=C(CN1c2ccccc2Sc2ccccc21)NNC(=S)NCc1ccccc1
Select the item with the higher value of EC50 from the options P and Q listed. State your choice using its label.
Q
(Q: 2800 nM, P: 600 nM)
